Endpoint: IC50. System: UniProt:P53341. Items follow.
Sequence (P53341 whole entry): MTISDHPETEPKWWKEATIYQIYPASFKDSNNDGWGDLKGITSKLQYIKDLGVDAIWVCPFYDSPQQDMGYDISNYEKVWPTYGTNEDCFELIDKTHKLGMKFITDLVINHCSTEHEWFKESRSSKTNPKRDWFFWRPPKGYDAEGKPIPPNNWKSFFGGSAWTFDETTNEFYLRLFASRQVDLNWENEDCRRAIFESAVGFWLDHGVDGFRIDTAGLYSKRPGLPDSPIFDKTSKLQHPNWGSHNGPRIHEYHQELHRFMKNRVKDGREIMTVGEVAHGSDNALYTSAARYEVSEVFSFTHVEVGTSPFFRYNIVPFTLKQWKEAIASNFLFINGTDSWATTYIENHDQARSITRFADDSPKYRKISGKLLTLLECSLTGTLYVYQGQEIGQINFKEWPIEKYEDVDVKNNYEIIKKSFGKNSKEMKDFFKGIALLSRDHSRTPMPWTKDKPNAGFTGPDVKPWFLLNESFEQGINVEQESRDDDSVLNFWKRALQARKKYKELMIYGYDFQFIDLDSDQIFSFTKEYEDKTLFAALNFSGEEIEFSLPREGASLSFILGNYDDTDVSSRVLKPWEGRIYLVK
Number only, in µM; omit the unit.

// known answers, use as guide
| smiles.entry | quantity.unit | numeric.readout |
| --- | --- | --- |
| O=C1/C=C/C=C/c2ccc(O)c(c2)Oc2ccc(cc2)CC1 | µM | 128 |
| O=C1Cc2ccc(O)c(c2)-c2cc(ccc2O)C[C@@H](O)[C@@H](O)[C@@H](O)[C@H]1O | µM | 175 |
| COc1c2cc(c(OC)c1O)Oc1ccc(cc1)CCCC[C@H](O)/C=C\2 | µM | 167 |
| O=C1/C=C/CCc2ccc(O)c(c2)Oc2ccc(cc2)CC1 | µM | 127 |
| O=C1C[C@@H](O)Cc2ccc(O)c(c2)-c2cc(ccc2O)C[C@H](O)[C@H]1O | µM | 124 |

Entry O=C1CCc2ccc(O)c(c2)-c2cc(ccc2O)C[C@H](O)C[C@@H]1O ; IC50 = 114

Entry COc1c2cc(c(OC)c1O)Oc1ccc(cc1)CC[C@H](O)/C=C/C=C\2 ; IC50 = 108
